Recorded MIC, one value per entry.
Test system: wild-type (wt) Salmonella enterica serovar Typhimurium strain SL1344
EXPERIMENTAL_SETUP: Table 1; ∼10^5 cfu/ml, non-cation-adjusted MHB, 37°C, 24 h, lowest concentration with OD600 < 0.1
EXPERIMENTAL_ENDPOINT: MIC (µM)

> print(dat)
                         sequence.code  units.label  prefix.operator  value
 1       RXRRXRRXRRXRXB [RXR-acpP-scr]           µM                >     10
 2            GRKKKRRQRRRYK [Tat-acpP]           µM                =      5
 3           KFFKFFKFFK [KFF-acpP-scr]           µM                >     10
 4           RXRRXRRXRRXRXB [RXR-acpP]           µM                =    2.5
 5        GRKKKRRQRRRYK [Tat-acpP-scr]           µM                >     20
 6   VRLPPPVRLPPPVRLPPP [SAP-acpP-scr]           µM                >     10
 7         RQIKIWFQNRRMKWKK [ANT-acpP]           µM                =    3.3
 8  VELPPPVELPPPVELPPP [SAPE-acpP-scr]           µM                >     10
 9               KFFKFFKFFK [KFF-acpP]           µM                =   1.25
10     RQIKIWFQNRRMKWKK [ANT-acpP-scr]           µM                >     10
